Reference for the values: the supplement of paper PMC12636033

tested on: WT Max(13-93) synthetic (M65Nle); test: PBM 8-mer E-score (E-score (rank enrichment, -0.5 to 0.5)); higher = stronger preferential binding
Whole data set: some 33,000 sequences, median “E-score (rank enrichment, -0.5 to 0.5)” near -0.0075, cut for the highest 2% near 0.23. For the sample, the highest values were picked, then their nearest neighbours and some sequences at random.
Reported Metric: PBM 8-mer E-score
Answer with the value's number alone.

Sample records with PBM 8-mer E-score:
AGACCTCA; -0.0265
CGCCACGA; -0.137
ATCAACAG; 0.106

Challenge: Lab note: need PBM 8-mer E-score with WT Max(13-93) synthetic (M65Nle) for entry `CTATACAG` , please look it up.
Response given: 0.0775

Challenge: Lab note: need PBM 8-mer E-score with WT Max(13-93) synthetic (M65Nle) for entry `ATGTGGAG` , please look it up.
Response given: 0.165

Challenge: Lab note: need PBM 8-mer E-score with WT Max(13-93) synthetic (M65Nle) for entry `CGTGTAAG` , please look it up.
Response given: 0.113

Challenge: Lab note: need PBM 8-mer E-score with WT Max(13-93) synthetic (M65Nle) for entry `ATAATCAG` , please look it up.
Response given: 0.256

Challenge: Lab note: need PBM 8-mer E-score with WT Max(13-93) synthetic (M65Nle) for entry `ACCAAAGA` , please look it up.
Response given: 0.003

----------
Collected PBM 8-mer E-score values appear next to each entry.
tested on: WT Max(13-93) synthetic (M65Nle); assay: PBM 8-mer E-score (E-score (rank enrichment, -0.5 to 0.5)); higher = stronger preferential binding
In all, about 33,000 sequences were measured (“E-score (rank enrichment, -0.5 to 0.5)”: median about -0.0075, highest 2% from about 0.23 on). Shown is part of a subset that was picked to be rich in the highest values.
Answer with the value's number alone.

Sample records with PBM 8-mer E-score:
CGAGGAAA; 0.0336
AAGAACTA; 0.204
CTATTCAC; -0.0152

Challenge: Lab note: need PBM 8-mer E-score with WT Max(13-93) synthetic (M65Nle) for entry `ACCAGAAA` , please look it up.
Response given: 0.0691

Challenge: Lab note: need PBM 8-mer E-score with WT Max(13-93) synthetic (M65Nle) for entry `AATCGATC` , please look it up.
Response given: -0.232

Challenge: Lab note: need PBM 8-mer E-score with WT Max(13-93) synthetic (M65Nle) for entry `CAAATCAC` , please look it up.
Response given: 0.0214

Challenge: Lab note: need PBM 8-mer E-score with WT Max(13-93) synthetic (M65Nle) for entry `ATATTCAC` , please look it up.
Response given: 0.234

Challenge: Lab note: need PBM 8-mer E-score with WT Max(13-93) synthetic (M65Nle) for entry `GAGGAAAA` , please look it up.
Response given: 0.113

Challenge: Lab note: need PBM 8-mer E-score with WT Max(13-93) synthetic (M65Nle) for entry `GTATTCAC` , please look it up.
Response given: 0.0929

Challenge: Lab note: need PBM 8-mer E-score with WT Max(13-93) synthetic (M65Nle) for entry `GACCTTAC` , please look it up.
Response given: -0.127

Challenge: Lab note: need PBM 8-mer E-score with WT Max(13-93) synthetic (M65Nle) for entry `AGACACCC` , please look it up.
Response given: -0.159
